The values you see were collected from patent US8003649B2.

biological target: Androgen Receptor (AR) (Homo sapiens, UniProt P10275, T878A); construct: cell based immuno-fluorescence assay using the LNCaP prostate epithelial cell line; endogenous in cells; host or cells: LNCaP clone FGC (ATCC CRL-1740); assay: LNCaP Androgen Receptor Down-regulation Cell Assay (immunofluorescence end point); assay type: cell-based; settings: LNCaP prostate carcinoma cells, compound incubation 20-22 hours, 50% reduction of the AR signal; read-out: Androgen Receptor Down-regulation Assay (a) IC50/μM
Sequence (P10275 whole entry T878A): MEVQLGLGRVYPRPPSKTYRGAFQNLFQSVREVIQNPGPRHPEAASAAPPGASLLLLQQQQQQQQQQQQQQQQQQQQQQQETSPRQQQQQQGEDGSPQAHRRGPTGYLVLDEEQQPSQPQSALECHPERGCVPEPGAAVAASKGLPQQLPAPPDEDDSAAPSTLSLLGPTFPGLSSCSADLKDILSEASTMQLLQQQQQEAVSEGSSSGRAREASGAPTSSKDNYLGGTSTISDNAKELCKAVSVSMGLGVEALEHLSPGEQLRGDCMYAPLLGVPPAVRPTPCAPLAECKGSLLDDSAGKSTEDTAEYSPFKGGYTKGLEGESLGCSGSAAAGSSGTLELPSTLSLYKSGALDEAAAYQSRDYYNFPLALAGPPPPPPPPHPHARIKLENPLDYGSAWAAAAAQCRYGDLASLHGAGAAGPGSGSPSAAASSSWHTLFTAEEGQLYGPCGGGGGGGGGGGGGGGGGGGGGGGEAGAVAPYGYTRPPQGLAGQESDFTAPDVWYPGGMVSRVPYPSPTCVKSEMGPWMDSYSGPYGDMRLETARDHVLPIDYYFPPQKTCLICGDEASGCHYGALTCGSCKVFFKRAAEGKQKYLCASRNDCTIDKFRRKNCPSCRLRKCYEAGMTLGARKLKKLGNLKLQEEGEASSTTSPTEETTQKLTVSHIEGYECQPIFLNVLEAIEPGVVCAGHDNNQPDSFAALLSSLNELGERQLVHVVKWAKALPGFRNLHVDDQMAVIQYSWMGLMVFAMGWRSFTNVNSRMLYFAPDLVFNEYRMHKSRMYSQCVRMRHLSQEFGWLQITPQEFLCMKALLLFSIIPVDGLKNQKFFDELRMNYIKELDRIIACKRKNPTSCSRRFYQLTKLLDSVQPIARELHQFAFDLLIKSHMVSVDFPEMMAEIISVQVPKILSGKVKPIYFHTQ
MEASURE_NAME: DC50 (µM)
Please give a number only; it is taken to be in µM.

# DC50 of CN1CCN(C(=O)c2cccc(OC3CCN(c4ccc5nnc(C(F)(F)F)n5n4)CC3)c2)CC1 [Example 687] = 3.8

# DC50 of COc1ccc(OC2CCN(c3ccc4nnc(C(F)(F)F)n4n3)CC2)cc1 [Example 528] = 2.2

# DC50 of COCCNC(=O)c1ccc(C2CCN(c3ccc4nnc(C(F)(F)F)n4n3)CC2)cc1 [Example 633] = 1.9

# DC50 of Fc1ccc2[nH]cc(CN3CCN(c4ccc5nnc(C(F)F)n5n4)CC3)c2c1 [Example 290] = 5.8

# DC50 of FC(F)(F)c1nnc2ccc(N3CCC(Cc4cccnc4)CC3)nn12 [Example 539] = 1.5

# DC50 of COc1ccc(CN2CCN(c3ccc4nnc(C(F)(F)F)n4n3)CC2)c(F)c1 [Example 385] = 2.1

# DC50 of N#Cc1cccc(CN2CCCN(c3ccc4nnc(C(F)(F)F)n4n3)CC2)c1 [Example 171] = 0.62
